Target: h5-HT1A receptor (Homo sapiens, UniProt P08908)
Sequence (P08908 whole entry): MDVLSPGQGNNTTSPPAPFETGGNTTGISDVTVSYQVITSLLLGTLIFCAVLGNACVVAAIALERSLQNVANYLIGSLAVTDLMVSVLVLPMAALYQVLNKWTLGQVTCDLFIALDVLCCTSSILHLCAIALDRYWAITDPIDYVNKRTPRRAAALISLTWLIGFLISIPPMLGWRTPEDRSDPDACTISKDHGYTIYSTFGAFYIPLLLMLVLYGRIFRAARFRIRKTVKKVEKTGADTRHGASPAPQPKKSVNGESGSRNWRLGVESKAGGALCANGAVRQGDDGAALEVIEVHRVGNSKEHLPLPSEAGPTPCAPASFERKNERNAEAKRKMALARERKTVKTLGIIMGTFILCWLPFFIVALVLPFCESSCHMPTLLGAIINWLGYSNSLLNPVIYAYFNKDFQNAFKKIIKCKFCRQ
Assay: Stimulation of [35S]GTPγS binding, HEK-h5-HT1A membranes
Format: biochemical
Details: normalized to the maximal stimulation by 5-HT
METRIC: h5-HT1A Stimulation of [35S]GTPγS binding % maximum stimulation ± sem (%)
Answer in %, number only, no unit symbol.

Examples from the recorded data:
1. CCCC(C(=O)c1ccc2c(c1)OCO2)N1CCCC1 (stereo not drawn): 69.0
2. CNC(C)C(=O)c1ccc(F)cc1 (stereo not drawn): 70.7
3. CCC(NC)C(=O)c1ccc2c(c1)OCO2 (stereo not drawn): 52

[Q] // lookup h5-HT1A Stimulation of [35S]GTPγS binding % maximum stimulation ± sem for CNC(C)Cc1ccc2c(c1)OCO2 (stereo not drawn) [MDMA, 3,4-methylenedioxymethylamphetamine, reference compound]
[A] 65.8

[Q] // lookup h5-HT1A Stimulation of [35S]GTPγS binding % maximum stimulation ± sem for CCCC(C(=O)c1ccc2ccccc2c1)N1CCCC1 (stereo not drawn)
[A] 80

[Q] // lookup h5-HT1A Stimulation of [35S]GTPγS binding % maximum stimulation ± sem for CNC(C)C(=O)c1ccccc1 (stereo not drawn) [Methcathinone, methcathinone, reference compound]
[A] 52.8

---

Target: hSERT (Homo sapiens, UniProt P31645)
Sequence (P31645 whole entry, the tested form may be a part): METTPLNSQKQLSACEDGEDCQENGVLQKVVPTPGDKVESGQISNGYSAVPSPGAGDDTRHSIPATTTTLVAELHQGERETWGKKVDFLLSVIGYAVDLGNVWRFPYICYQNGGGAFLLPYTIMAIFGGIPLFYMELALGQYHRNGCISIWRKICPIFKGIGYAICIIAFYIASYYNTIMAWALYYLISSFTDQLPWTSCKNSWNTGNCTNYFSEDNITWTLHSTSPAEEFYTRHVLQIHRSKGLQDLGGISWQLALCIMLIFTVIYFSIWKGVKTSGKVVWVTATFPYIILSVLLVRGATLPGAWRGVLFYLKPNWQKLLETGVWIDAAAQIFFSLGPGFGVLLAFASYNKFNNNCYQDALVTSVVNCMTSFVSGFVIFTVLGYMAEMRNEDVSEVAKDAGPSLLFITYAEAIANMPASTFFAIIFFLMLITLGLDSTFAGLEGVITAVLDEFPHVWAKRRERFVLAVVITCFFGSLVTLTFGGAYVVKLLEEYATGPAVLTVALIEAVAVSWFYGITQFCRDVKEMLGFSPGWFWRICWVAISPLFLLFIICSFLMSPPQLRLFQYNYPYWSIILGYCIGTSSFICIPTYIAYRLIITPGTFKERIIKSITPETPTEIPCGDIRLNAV
Assay: Superfusion release of preloaded [3H]5-HT from HEK-hSERT cells
Assay type: cell-based
Conditions: read-out: Drug-induced release of [3H]neurotransmitter EC50 ± sem, hSERT [3H]5-HT; superfusion, AUC
METRIC: pEC50
Just the number, please; pEC50 means minus log10 of the concentration in mol/L.

Examples from the recorded data:
1. CNC(C)Cc1ccc2c(c1)OCO2 (stereo not drawn) [MDMA, 3,4-methylenedioxymethylamphetamine, reference compound]: 5.98
2. CC(N)Cc1ccc(Cl)cc1 (stereo not drawn) [PCA, p-chloroamphetamine, reference compound]: 6.10

Could you now look at the following compound, please?
[Q] // lookup pEC50 for CCC(NC)C(=O)c1ccc2c(c1)OCO2 (stereo not drawn)
[A] 5.51

---

Molecular target: hNET (Homo sapiens, UniProt P23975)
Sequence (P23975 whole entry, the tested form may be a part): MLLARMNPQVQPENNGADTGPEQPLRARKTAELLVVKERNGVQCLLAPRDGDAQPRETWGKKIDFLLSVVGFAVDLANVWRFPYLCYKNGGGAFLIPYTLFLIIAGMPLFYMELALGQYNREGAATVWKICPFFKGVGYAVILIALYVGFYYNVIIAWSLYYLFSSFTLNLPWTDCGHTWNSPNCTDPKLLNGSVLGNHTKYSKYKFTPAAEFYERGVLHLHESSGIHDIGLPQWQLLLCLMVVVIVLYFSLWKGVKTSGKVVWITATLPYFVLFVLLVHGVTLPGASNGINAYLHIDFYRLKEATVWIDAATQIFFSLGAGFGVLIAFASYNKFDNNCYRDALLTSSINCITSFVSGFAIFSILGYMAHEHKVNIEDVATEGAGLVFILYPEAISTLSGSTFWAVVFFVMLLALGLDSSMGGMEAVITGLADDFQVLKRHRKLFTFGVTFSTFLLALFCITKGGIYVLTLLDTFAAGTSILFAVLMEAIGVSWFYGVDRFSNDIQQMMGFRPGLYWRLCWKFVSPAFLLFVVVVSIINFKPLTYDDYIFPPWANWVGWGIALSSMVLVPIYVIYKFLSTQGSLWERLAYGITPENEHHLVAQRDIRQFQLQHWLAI
Experiment: Superfusion release of preloaded [3H]NE from HEK-hNET cells
Assay type: cell-based
Here the recorded EC50 is given for each entry.
Answer in nM, number only, no unit symbol.

Examples from the recorded data:
1) CN[C@@H](C)Cc1ccccc1 [METH, (+)methamphetamine, reference compound]: 128
2) CNC(C)C(=O)c1ccc(C)cc1 (stereo not drawn): 410

Could you now look at the following molecule, please?
[Q] // lookup EC50 for CNC(C)C(=O)c1ccc2c(c1)OCO2 (stereo not drawn)
[A] 426

---

Target: hSERT (Homo sapiens, UniProt P31645)
Test: Inhibition of [3H]5-HT uptake, intact HEK-hSERT cells
Format: cell-based
Here the recorded IC50 is given for each entry.
Be sure to follow the number with its unit.

Examples from the recorded data:
1. CNC(C)C(=O)c1ccc(C)cc1 (stereo not shown): 510 nM
2. OC1(c2ccc(Cl)cc2)c2ccccc2C2=NCCN21 (stereo not shown) [Mazindol, reference compound]: 30.7 nM
3. CN[C@@H](C)Cc1ccccc1 [METH, (+)methamphetamine, reference compound]: 4100 nM

[Q] Short answer please: IC50, hSERT (Homo sapiens, UniProt P31645), entry CNC(C)C(=O)c1ccc2c(c1)OCO2 (stereo not shown)
[A] 1920 nM

---

Target: hVMAT2 (Homo sapiens)
Sequence (Q05940 whole entry): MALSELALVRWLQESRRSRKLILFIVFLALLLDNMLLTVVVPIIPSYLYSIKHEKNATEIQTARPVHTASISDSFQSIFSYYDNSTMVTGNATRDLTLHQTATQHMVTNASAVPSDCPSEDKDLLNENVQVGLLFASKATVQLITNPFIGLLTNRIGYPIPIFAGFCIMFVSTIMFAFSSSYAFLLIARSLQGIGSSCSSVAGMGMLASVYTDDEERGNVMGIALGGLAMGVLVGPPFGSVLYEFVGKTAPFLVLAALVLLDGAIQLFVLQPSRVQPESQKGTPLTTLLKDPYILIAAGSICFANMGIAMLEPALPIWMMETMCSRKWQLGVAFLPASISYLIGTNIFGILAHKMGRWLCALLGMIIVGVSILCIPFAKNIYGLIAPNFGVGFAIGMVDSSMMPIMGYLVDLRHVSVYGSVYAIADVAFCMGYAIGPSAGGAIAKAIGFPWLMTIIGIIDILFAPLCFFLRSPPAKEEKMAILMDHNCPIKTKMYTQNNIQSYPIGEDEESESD
Experiment: Inhibition of [3H]5-HT uptake, HEK-hVMAT2 membrane preparation
Format: biochemical
Settings: read-out: Inhibition of [3H]5-HT uptake IC50 ± sem, hVMAT2; 40 nM [3H]5-HT, 2 mM MgATP
pIC50: −log10 of the molar value.
Think of 4 as a floor: if pIC50 stands on it or above, it is Criterion met; beneath it, Criterion not met.

[Q] # check: pIC50 of CNC(C)Cc1ccc2c(c1)OCO2 (stereo not shown) [MDMA, 3,4-methylenedioxymethylamphetamine, reference compound] is greater than or equal to 4
[A] Criterion met

[Q] # check: pIC50 of CCC(NC)C(=O)c1ccc2c(c1)OCO2 (stereo not shown) is greater than or equal to 4
[A] Criterion not met

---

Biological target: UniProt:P23975
Experiment: cell-based
Assay type: cell-based
Conditions: read-out: Inhibition of [3H]neurotransmitter uptake IC50 ± sem, hNET [3H]NE; 20 nM [3H]NE, intact cells
METRIC: pIC50
Just the number, please; pIC50 means minus log10 of the concentration in mol/L.

Examples from the recorded data:
1. CNC(C)C(=O)c1ccc(F)cc1 (stereo not shown): 6.90
2. CNC(C)C(=O)c1ccccc1 (stereo not shown) [Methcathinone, methcathinone, reference compound]: 7.51
3. CCC(NC)C(=O)c1ccc2c(c1)OCO2 (stereo not shown): 5.97

Could you now look at the following molecule, please?
[Q] // lookup pIC50 for CCCC(C(=O)c1ccc2c(c1)OCO2)N1CCCC1 (stereo not shown)
[A] 7.73

---

Here the recorded pKi is given for each entry.
Biological target: hDAT (Homo sapiens)
Experiment: Inhibition of [125I]RTI-55 binding, HEK-hDAT membranes
Conditions: read-out: Inhibition of [125I]RTI-55 binding Ki ± sem, hDAT; HEK-hDAT membranes
Just the number, please; pKi means minus log10 of the concentration in mol/L.

1) CNC(C)C(=O)c1ccccc1 (stereo not drawn) [Methcathinone, methcathinone, reference compound]: 5.48
2) CNC(C)Cc1ccc2c(c1)OCO2 (stereo not drawn) [MDMA, 3,4-methylenedioxymethylamphetamine, reference compound]: 4.66
3) CNC(C)C(=O)c1ccc(F)cc1 (stereo not drawn): 4.98
4) CCCC(C(=O)c1ccc2ccccc2c1)N1CCCC1 (stereo not drawn): 7.97
5) CCCC(C(=O)c1ccc2c(c1)OCO2)N1CCCC1 (stereo not drawn): 7.71

Could you now look at the following compound, please?
[Q] // lookup pKi for CCC(NC)C(=O)c1ccc2c(c1)OCO2 (stereo not drawn)
[A] 5.76

---

Biological target: UniProt:P08908
Experiment: [3H]8-OH-DPAT binding, HEK-h5-HT1A
METRIC: pKi
Just the number, please; pKi means minus log10 of the concentration in mol/L.

1. CNC(C)C(=O)c1ccc2c(c1)OCO2 (stereo not drawn): 4.20

Could you now look at the following molecule, please?
[Q] // lookup pKi for CN[C@@H](C)Cc1ccccc1 [METH, (+)methamphetamine, reference compound]
[A] 5.23

---

Here the recorded pEC50 is given for each entry.
Molecular target: hDAT (Homo sapiens, UniProt Q01959)
Sequence (Q01959 whole entry, the tested form may be a part): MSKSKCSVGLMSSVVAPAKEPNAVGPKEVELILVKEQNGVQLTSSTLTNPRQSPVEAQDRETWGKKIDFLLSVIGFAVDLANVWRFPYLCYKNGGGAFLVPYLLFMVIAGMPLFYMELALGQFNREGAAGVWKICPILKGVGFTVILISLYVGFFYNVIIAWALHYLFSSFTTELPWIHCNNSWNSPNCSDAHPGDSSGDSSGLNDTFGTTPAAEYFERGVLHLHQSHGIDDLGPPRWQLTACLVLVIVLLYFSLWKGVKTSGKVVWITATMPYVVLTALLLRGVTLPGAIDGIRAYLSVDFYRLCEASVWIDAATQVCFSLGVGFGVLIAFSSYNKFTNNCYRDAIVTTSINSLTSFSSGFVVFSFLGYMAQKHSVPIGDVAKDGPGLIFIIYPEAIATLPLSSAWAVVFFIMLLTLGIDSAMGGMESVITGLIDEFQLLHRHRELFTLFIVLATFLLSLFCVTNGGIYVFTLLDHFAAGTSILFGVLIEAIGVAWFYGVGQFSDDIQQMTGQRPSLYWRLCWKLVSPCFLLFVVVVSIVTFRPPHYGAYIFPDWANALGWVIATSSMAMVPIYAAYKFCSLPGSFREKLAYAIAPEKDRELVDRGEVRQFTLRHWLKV
Test: Superfusion release of preloaded [3H]DA from HEK-hDAT cells
Assay type: cell-based
Just the number, please; pEC50 means minus log10 of the concentration in mol/L.

Examples from the recorded data:
1. CN[C@@H](C)Cc1ccccc1 [METH, (+)methamphetamine, reference compound]: 6.40
2. CNC(C)C(=O)c1ccc2c(c1)OCO2 (stereo not drawn): 4.93

Could you now look at the following molecule, please?
[Q] // lookup pEC50 for CNC(C)C(=O)c1ccc(C)cc1 (stereo not drawn)
[A] 5.92

---

Target: hNET (Homo sapiens)
Assay: biochemical
Type: binding
Details: read-out: Inhibition of [125I]RTI-55 binding Ki ± sem, hNET
Here the recorded pKi is given for each entry.
Just the number, please; pKi means minus log10 of the concentration in mol/L.

1. CCCC(C(=O)c1ccc2ccccc2c1)N1CCCC1 (centres unmarked) [Naphyrone, naphthylpyrovalerone]: 7.23

[Q] // lookup pKi for CNC(C)Cc1ccc2c(c1)OCO2 (centres unmarked) [MDMA, 3,4-methylenedioxymethylamphetamine, reference compound]
[A] 4.51

---

Molecular target: h5-HT1A receptor (Homo sapiens, UniProt P08908)
Test: Stimulation of [35S]GTPγS binding, HEK-h5-HT1A membranes
Type: biochemical
Conditions: read-out: h5-HT1A Stimulation of [35S]GTPγS binding EC50 ± sem
METRIC: log10 of EC50 (log10 of the value in µM)
A value of 2 here means EC50 of 100 in µM, since values are log10.

[Q] // lookup log10 of EC50 for CNC(C)C(=O)c1ccc(F)cc1 (stereo not drawn)
[A] 2.19

[Q] // lookup log10 of EC50 for CNC(C)Cc1ccc2c(c1)OCO2 (stereo not drawn) [MDMA, 3,4-methylenedioxymethylamphetamine, reference compound]
[A] 1.54

[Q] // lookup log10 of EC50 for CCCC(C(=O)c1ccc2c(c1)OCO2)N1CCCC1 (stereo not drawn)
[A] 1.78

[Q] // lookup log10 of EC50 for CCC(NC)C(=O)c1ccc2c(c1)OCO2 (stereo not drawn)
[A] 2.64

[Q] // lookup log10 of EC50 for CNC(C)C(=O)c1ccccc1 (stereo not drawn) [Methcathinone, methcathinone, reference compound]
[A] 1.69

[Q] // lookup log10 of EC50 for CCCC(C(=O)c1ccc2ccccc2c1)N1CCCC1 (stereo not drawn)
[A] 2.06

// data source = paper PMC3692398
